System: Klebsiella pneumoniae
procedureText: Synergistic antibacterial activity against Klebsiella pneumoniae 440/1360 producing KPC-2 assessed as cefepime MIC at 4 ug/ml by broth microdilution method
Format: functional
settings: dose 4 µg/ml
quantity: MIC

[[record]]
compound = "O=C(NNC(=O)[C@@H]1CC[C@@H]2CN1C(=O)N2OS(=O)(=O)O)[C@@H]1CCCNC1 [ZIDEBACTAM]"
measvalue = "≤ 0.12 µg/mL"

[[record]]
compound = "O=C(NNC(=O)[C@@H]1CC[C@@H]2CN1C(=O)N2OS(=O)(=O)O)[C@@H]1CCNC1"
measvalue = "≤ 0.12 µg/mL"


Now look at this entry.
*Q* Note MIC for the compound shown: NC(=O)[C@@H]1CC[C@@H]2CN1C(=O)N2OS(=O)(=O)[O-].[Na+] [AVIBACTAM SODIUM]
*A* ≤ 0.12 µg/mL

====

Test system: Klebsiella pneumoniae
procedureText: Synergistic antibacterial activity against Klebsiella pneumoniae 972/1910 producing KPC-3 assessed as cefepime MIC at 4 ug/ml by broth microdilution method
Format: functional
settings: dose 4 µg/ml
The following compounds are shown together with reported MIC values.

Sample answers from the record:
[[record]]
compound = "O=C(NNC(=O)[C@@H]1CC[C@@H]2CN1C(=O)N2OS(=O)(=O)O)[C@@H]1CCNC1"
quantity = "MIC"
measvalue = "≤ 0.12 µg/mL"

[[record]]
compound = "NC(=O)[C@@H]1CC[C@@H]2CN1C(=O)N2OS(=O)(=O)[O-].[Na+] [AVIBACTAM SODIUM]"
quantity = "MIC"
measvalue = "≤ 0.12 µg/mL"


*Q* Respond only with MIC recorded for O=C(NNC(=O)[C@@H]1CC[C@@H]2CN1C(=O)N2OS(=O)(=O)O)[C@@H]1CCCNC1 [ZIDEBACTAM]
*A* ≤ 0.12 µg/mL
